Target: Cytochrome P450 3A4 (Homo sapiens) (UniProt P08684)
Sequence (P08684 whole entry, looked up): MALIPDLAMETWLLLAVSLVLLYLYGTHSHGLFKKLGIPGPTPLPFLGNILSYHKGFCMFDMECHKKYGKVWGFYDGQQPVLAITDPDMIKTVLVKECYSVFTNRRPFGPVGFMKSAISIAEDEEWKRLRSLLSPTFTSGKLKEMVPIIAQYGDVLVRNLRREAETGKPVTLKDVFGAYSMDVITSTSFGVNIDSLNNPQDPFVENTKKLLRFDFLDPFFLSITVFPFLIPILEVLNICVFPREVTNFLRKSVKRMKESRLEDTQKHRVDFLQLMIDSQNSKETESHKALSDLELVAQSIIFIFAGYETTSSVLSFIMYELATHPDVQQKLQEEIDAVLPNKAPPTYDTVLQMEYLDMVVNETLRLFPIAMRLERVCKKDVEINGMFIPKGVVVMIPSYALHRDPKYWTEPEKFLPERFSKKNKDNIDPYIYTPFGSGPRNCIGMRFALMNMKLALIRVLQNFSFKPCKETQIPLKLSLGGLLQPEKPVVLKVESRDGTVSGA
Test: qHTS Assay for Activators of Cytochrome P450 3A4 (AID 885); further: nearly all actives have a fitted effect of over 65% in size
Details: recombinant CYP3A4, Luciferin-PPXE luminescence, 60 min; series mostly up to 57.1 µM
Active and inactive are the calls of the source. The call rests on the fitted dose curve; in most records, active means well fitted activation curve with a large enough effect; inconclusive means small, poorly fitted or top-dose-only effect; inactive means no such curve, though single readings can be large or run the other way.
The reply should be one of these categories: yes (1) = active, no (0) = inactive

{"Compound": "CNC(=O)c1cc2c(cn1)[nH]c1ccccc12", "Class Label": "no (0)"}

Data request: Outcome? Cc1nc(N=Nc2ccc(C(=O)O)cc2)c(COP(=O)(O)O)c(C=O)c1O
Data returned: no (0)

Data request: Do the same for N[C@H](C(=O)O)[C@H](O)C(=O)O please
Data returned: no (0)

Data request: Would you kindly repeat that for Cc1nc2c(OCc3ccccc3)cccn2c1CC#N ?
Data returned: no (0)

Data request: And then Nc1ccc(-c2ccc3ccccc3n2)cc1 , what is it?
Data returned: no (0)

Data request: Can you check O=c1onc2cnc3ccccc3n12 next?
Data returned: no (0)

Data request: Another: CC(C)Cn1c(=O)n(C)c(=O)c2[nH]cnc21
Data returned: no (0)

Data request: Queued: COc1cc(/C=C(\C#N)C(=O)c2ccc(O)c(O)c2)cc(I)c1O
Data returned: no (0)

Data request: Please do the same for CCN(CC)CCOC(=O)c1cc(Cl)c(N)cc1OC as well.
Data returned: no (0)
